# Test system: 186277-243-T-J2-PDC multi-cell spheroid viability
# method.summary: Anticancer human tumor 186277-243-T-J2-PDC patient-derived colon adenocarcinoma cell line growth inhibition [PI3K]
# condition.parameters: second compound 0.1 µM; first compound 3.16 µM; stronger effect = lower value
measurement.type: viability, T/C

compound="CNC(=O)c1ccc(N2C(=S)N(c3ccc(C#N)c(C(F)(F)F)c3)C(=O)C2(C)C)cc1F + Cc1nc(NC(=O)N2CCCC2C(N)=O)sc1-c1ccnc(C(C)(C)C(F)(F)F)c1" assay_value=114%
compound="CCCS(=O)(=O)Nc1ccc(F)c(C(=O)c2c[nH]c3ncc(-c4ccc(Cl)cc4)cc23)c1F + COc1c(OCCCN2CCOCC2)ccc2c3n(c(=NC(=O)c4cnc(N)nc4)nc12)CCN3" assay_value=46%
compound="CNC(=O)c1ccc(N2C(=S)N(c3ccc(C#N)c(C(F)(F)F)c3)C(=O)C2(C)C)cc1F + CC(Nc1ncnc2nc[nH]c12)c1cc2cccc(Cl)c2c(=O)n1-c1ccccc1" assay_value=115%
compound="CC(Cn1ccc(-c2ccc(C#N)c(Cl)c2)n1)NC(=O)c1cc(C(C)O)[nH]n1 (stereo not given) + COc1c(OCCCN2CCOCC2)ccc2c3n(c(=NC(=O)c4cnc(N)nc4)nc12)CCN3" assay_value=19%
compound="CC1(C)CCC(CN2CCN(c3ccc(C(=O)NS(=O)(=O)c4ccc(NCC5CCOCC5)c([N+](=O)[O-])c4)c(Oc4cnc5[nH]ccc5c4)c3)CC2)=C(c2ccc(Cl)cc2)C1 + COc1c(OCCCN2CCOCC2)ccc2c3n(c(=NC(=O)c4cnc(N)nc4)nc12)CCN3" assay_value=23.9%
compound="Cn1nccc1Nc1nccc(-c2ccn(C(CO)c3ccc(Cl)c(F)c3)c(=O)c2)n1 (stereo not given) + CC(Nc1ccc2c(c1)OCCn1cc(N3C(=O)OCC3C(F)F)nc1-2)C(N)=O" assay_value=16.4%
compound="Cn1ncc(Cl)c1-c1cc(C(=O)NC(CN)Cc2cccc(F)c2)sc1Cl (stereo not given) + CC(Nc1ccc2c(c1)OCCn1cc(N3C(=O)OCC3C(F)F)nc1-2)C(N)=O" assay_value=16.6%
compound="CNC(=O)c1ccc(N2C(=S)N(c3ccc(C#N)c(C(F)(F)F)c3)C(=O)C2(C)C)cc1F + COc1c(OCCCN2CCOCC2)ccc2c3n(c(=NC(=O)c4cnc(N)nc4)nc12)CCN3" assay_value=19.6%
compound="CC(Cn1ccc(-c2ccc(C#N)c(Cl)c2)n1)NC(=O)c1cc(C(C)O)[nH]n1 (stereo not given) + CC(Nc1ncnc2nc[nH]c12)c1cc2cccc(Cl)c2c(=O)n1-c1ccccc1" assay_value=101%
compound="CC1(C)CCC(Nc2ncc(C(F)(F)F)c(-c3c[nH]c4c(P(C)(C)=O)c(C#N)ccc34)n2)CN1 (stereo not given) + COc1c(OCCCN2CCOCC2)ccc2c3n(c(=NC(=O)c4cnc(N)nc4)nc12)CCN3" assay_value=5.27%
compound="CC1(C)CCC(CN2CCN(c3ccc(C(=O)NS(=O)(=O)c4ccc(NCC5CCOCC5)c([N+](=O)[O-])c4)c(Oc4cnc5[nH]ccc5c4)c3)CC2)=C(c2ccc(Cl)cc2)C1 + CC(Nc1ccc2c(c1)OCCn1cc(N3C(=O)OCC3C(F)F)nc1-2)C(N)=O" assay_value=60.3%
compound="CC1(C)CCC(CN2CCN(c3ccc(C(=O)NS(=O)(=O)c4ccc(NCC5CCOCC5)c([N+](=O)[O-])c4)c(Oc4cnc5[nH]ccc5c4)c3)CC2)=C(c2ccc(Cl)cc2)C1 + CC(Nc1ncnc2nc[nH]c12)c1cc2cccc(Cl)c2c(=O)n1-c1ccccc1" assay_value=70.5%
compound="CNC(=O)c1ccc(N2C(=S)N(c3ccc(C#N)c(C(F)(F)F)c3)C(=O)C2(C)C)cc1F + CC(Nc1ccc2c(c1)OCCn1cc(N3C(=O)OCC3C(F)F)nc1-2)C(N)=O" assay_value=90.2%
compound="C#Cc1c(F)ccc2cc(O)cc(-c3ncc4c(N5CC6CCC(C5)N6)nc(OCC56CCCN5CC(F)C6)nc4c3F)c12 (stereo not given) + COc1c(OCCCN2CCOCC2)ccc2c3n(c(=NC(=O)c4cnc(N)nc4)nc12)CCN3" assay_value=1.5%
compound="C#Cc1c(F)ccc2cc(O)cc(-c3ncc4c(N5CC6CCC(C5)N6)nc(OCC56CCCN5CC(F)C6)nc4c3F)c12 (stereo not given) + Cc1nc(NC(=O)N2CCCC2C(N)=O)sc1-c1ccnc(C(C)(C)C(F)(F)F)c1" assay_value=8.35%
compound="C=CC(=O)N1CCN(c2nc(=O)n(-c3c(C)ccnc3C(C)C)c3nc(-c4c(O)cccc4F)c(F)cc23)C(C)C1 (stereo not given) + COc1c(OCCCN2CCOCC2)ccc2c3n(c(=NC(=O)c4cnc(N)nc4)nc12)CCN3" assay_value=11.1%
compound="Cn1nccc1Nc1nccc(-c2ccn(C(CO)c3ccc(Cl)c(F)c3)c(=O)c2)n1 (stereo not given) + Cc1nc(NC(=O)N2CCCC2C(N)=O)sc1-c1ccnc(C(C)(C)C(F)(F)F)c1" assay_value=30.9%
compound="CC1(C)CCC(Nc2ncc(C(F)(F)F)c(-c3c[nH]c4c(P(C)(C)=O)c(C#N)ccc34)n2)CN1 (stereo not given) + Cc1nc(NC(=O)N2CCCC2C(N)=O)sc1-c1ccnc(C(C)(C)C(F)(F)F)c1" assay_value=65%
compound="Cn1ncc(Cl)c1-c1cc(C(=O)NC(CN)Cc2cccc(F)c2)sc1Cl (stereo not given) + COc1c(OCCCN2CCOCC2)ccc2c3n(c(=NC(=O)c4cnc(N)nc4)nc12)CCN3" assay_value=6.13%
compound="C=CC(=O)N1CCN(c2nc(=O)n(-c3c(C)ccnc3C(C)C)c3nc(-c4c(O)cccc4F)c(F)cc23)C(C)C1 (stereo not given) + CC(Nc1ncnc2nc[nH]c12)c1cc2cccc(Cl)c2c(=O)n1-c1ccccc1" assay_value=100%

====

# Test system: 186277-243-T-J2-PDC multi-cell spheroid viability
# method.summary: Anticancer human tumor 186277-243-T-J2-PDC cell line growth inhibition [PI3K]; active means viability on the fitted dose curve at most 10% of control; inactive means the rest;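 also: spheroids exposed to compounds for seven days before viability reading; 100% = DMSO vehicle control viability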
# condition.parameters: second compound 0.1 µM; first compound 1 µM
Outcome codes: yes (1) = active, no (0) = inactive

compound="CC(Cn1ccc(-c2ccc(C#N)c(Cl)c2)n1)NC(=O)c1cc(C(C)O)[nH]n1 (configuration not stated) + Cc1nc(NC(=O)N2CCCC2C(N)=O)sc1-c1ccnc(C(C)(C)C(F)(F)F)c1" system="186277-243-T-J2-PDC multi-cell spheroid viability" label_value="no (0)"
compound="C[C@@H](NC(=O)c1ncnc(N)c1Cl)c1ncc(C(=O)Nc2cc(C(F)(F)F)c(Cl)cn2)s1 + CC(Nc1ncnc2nc[nH]c12)c1cc2cccc(Cl)c2c(=O)n1-c1ccccc1" system="186277-243-T-J2-PDC multi-cell spheroid viability" label_value="no (0)"
compound="CCN1CCN(Cc2ccc(Nc3ncc(F)c(-c4cc(F)c5nc(C)n(C(C)C)c5c4)n3)nc2)CC1 + Cc1nc(NC(=O)N2CCCC2C(N)=O)sc1-c1ccnc(C(C)(C)C(F)(F)F)c1" system="186277-243-T-J2-PDC multi-cell spheroid viability" label_value="no (0)"
compound="CC(Cn1ccc(-c2ccc(C#N)c(Cl)c2)n1)NC(=O)c1cc(C(C)O)[nH]n1 (configuration not stated) + CC(Nc1ccc2c(c1)OCCn1cc(N3C(=O)OCC3C(F)F)nc1-2)C(N)=O" system="186277-243-T-J2-PDC multi-cell spheroid viability" label_value="no (0)"
compound="CNC(=O)c1ccc(N2C(=S)N(c3ccc(C#N)c(C(F)(F)F)c3)C(=O)C2(C)C)cc1F + CC(Nc1ccc2c(c1)OCCn1cc(N3C(=O)OCC3C(F)F)nc1-2)C(N)=O" system="186277-243-T-J2-PDC multi-cell spheroid viability" label_value="no (0)"
compound="C=CC(=O)N1CCN(c2nc(=O)n(-c3c(C)ccnc3C(C)C)c3nc(-c4c(O)cccc4F)c(F)cc23)C(C)C1 (configuration not stated) + COc1c(OCCCN2CCOCC2)ccc2c3n(c(=NC(=O)c4cnc(N)nc4)nc12)CCN3" system="186277-243-T-J2-PDC multi-cell spheroid viability" label_value="no (0)"
compound="CCN1CCN(Cc2ccc(Nc3ncc(F)c(-c4cc(F)c5nc(C)n(C(C)C)c5c4)n3)nc2)CC1 + COc1c(OCCCN2CCOCC2)ccc2c3n(c(=NC(=O)c4cnc(N)nc4)nc12)CCN3" system="186277-243-T-J2-PDC multi-cell spheroid viability" label_value="no (0)"
compound="CC1(C)CCC(Nc2ncc(C(F)(F)F)c(-c3c[nH]c4c(P(C)(C)=O)c(C#N)ccc34)n2)CN1 (configuration not stated) + COc1c(OCCCN2CCOCC2)ccc2c3n(c(=NC(=O)c4cnc(N)nc4)nc12)CCN3" system="186277-243-T-J2-PDC multi-cell spheroid viability" label_value="yes (1)"
compound="C#Cc1c(F)ccc2cc(O)cc(-c3ncc4c(N5CC6CCC(C5)N6)nc(OCC56CCCN5CC(F)C6)nc4c3F)c12 (configuration not stated) + Cc1nc(NC(=O)N2CCCC2C(N)=O)sc1-c1ccnc(C(C)(C)C(F)(F)F)c1" system="186277-243-T-J2-PDC multi-cell spheroid viability" label_value="no (0)"
compound="CC1(C)CCC(Nc2ncc(C(F)(F)F)c(-c3c[nH]c4c(P(C)(C)=O)c(C#N)ccc34)n2)CN1 (configuration not stated) + CC(Nc1ncnc2nc[nH]c12)c1cc2cccc(Cl)c2c(=O)n1-c1ccccc1" system="186277-243-T-J2-PDC multi-cell spheroid viability" label_value="no (0)"
compound="Cn1ncc(Cl)c1-c1cc(C(=O)NC(CN)Cc2cccc(F)c2)sc1Cl (configuration not stated) + Cc1nc(NC(=O)N2CCCC2C(N)=O)sc1-c1ccnc(C(C)(C)C(F)(F)F)c1" system="186277-243-T-J2-PDC multi-cell spheroid viability" label_value="no (0)"
compound="CCCS(=O)(=O)Nc1ccc(F)c(C(=O)c2c[nH]c3ncc(-c4ccc(Cl)cc4)cc23)c1F + CC(Nc1ncnc2nc[nH]c12)c1cc2cccc(Cl)c2c(=O)n1-c1ccccc1" system="186277-243-T-J2-PDC multi-cell spheroid viability" label_value="no (0)"
